This listing pairs molecules with measured growth inhibition.
assay: inhibition of 3D7 malaria parasite growth – strain 3D7 (AID 2306);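 also: 0% = DMSO wells and 100% = chloroquine plus artemisinin control wells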; settings: P. falciparum 3D7 erythrocytic growth, LDH absorbance, 72 h; at 2 µM; stronger effect = higher value
observable: growth inhibition (%)

| molecule | test-result |
| --- | --- |
| Cc1cccc2[nH]c(-c3cccc(-c4ccc(CNCCNC(=O)c5ccnn5C)cc4)c3)nc12 | 102 |
| O=C(NCCCCN1CCC(c2cccc3ccccc23)CC1)c1ccc(NC(=O)c2ccc(Cl)cc2)cc1 | 99 |
| O=C(Nc1ccc(Cl)c(Cl)c1)Nc1ccc2nccc(N3CCN(Cc4ccccc4)CC3)c2c1 | 101 |
| O=C(Nc1cccnc1)c1cc(-c2cccnc2)nc2ccc(Cl)cc12 | 97 |
| C=CCn1c(C)cc(C(=O)COc2ccc(S(=O)(=O)N3CCOCC3)cc2[N+](=O)[O-])c1C | 94 |
| Cc1cc(N(C)CCN(C)C)nc(Nc2ccc(Cl)cc2)n1 | 92 |
| O=C(N[C@H]1CCCC[C@H]1C(=O)O)c1ccccc1 | 95 |
| N[C@@H](CCNC1CCN(c2cccc(C(F)(F)F)c2)CC1)Cc1ccc(F)c(F)c1 | 101 |
| COc1ccc(CN2CCC(CNCCc3ccccc3Cl)CC2)cc1 | 87 |
| C=CCOc1cccc2c1CCN(CCN1CCC(NC(=O)c3ccc(-c4ccc(Cl)cc4)cc3)CC1)C2 | 93 |
| CCNc1cc(C(=O)N[C@@H](Cc2ccccc2)[C@H](O)CNC2(CC)CCCCC2)cc(N2CCCCS2(=O)=O)c1 | 98 |
| Cc1ccc(CCNCC(O)c2cccc(C(F)(F)F)c2)cc1 (stereo not given) | 94 |
| Cc1cccc2[nH]c(-c3ccc(-c4cccc(CNCc5cnn(-c6ccccc6)n5)c4)s3)nc12 | 98 |
| O=C(NC1CCN(c2ccnc(Nc3ccc(F)cc3)n2)C1)c1cc2ccccc2s1 (stereo not given) | 99 |
| COc1ccc2ccc(OC)c(CNCCCCCCNCc3c(OC)ccc4ccc(OC)cc34)c2c1 | 101 |
| CCC[C@]1(C)CSc2ccccc2[C@@H](c2ccccc2)N1 | 87 |
| CC(=O)c1c(Cc2cccc(C(F)(F)F)c2)c[nH]c1C | 94 |
| O=C(NC1CC1)c1ccc(N2CCC(c3ccccc3)CC2)nc1 | 93 |
| O=C(CCc1cccc(O)c1)NCC(NCCCNc1cc(=O)c2ccccc2[nH]1)c1cc(Br)cc(Br)c1 (stereo not given) | 86 |
| Cc1cc(N)c2cc(NC(=O)/C=C/c3ccccc3)ccc2n1 | 102 |

###

assay: HepG2 cytotoxicity, primary screen, cytotoxicity control for P. falciparum antimalarial project, cell-based, ATP luminescence (AID 2303); details: HepG2 viability, 24-48 h, at 10 µM, stronger effect = higher value;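 also: 0% = DMSO wells and 100% = digitonin-killed cells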
The source made the active and inactive calls.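 How the source made its calls: active means inhibition above 50%; inactive means the rest.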

| molecule | inhibition |
| --- | --- |
| Cc1cc(NC(=O)Nc2ccc3ncccc3c2)c2ccccc2n1 | 6% (inactive) |
| Cc1nc(-c2cccc3c(NC(=O)N4CCc5cc6nccc(N7CCN(C)CC7)c6cc54)cccc23)no1 | 45% (inactive) |
| Cc1nc2ccc3ccc(CNc4ccc(C(=O)N[C@@H](CCC(=O)O)C(=O)O)cc4)cc3c2c(=O)[nH]1 | 32% (inactive) |
| COc1ccc(NC(=O)/C=C/c2ccccc2Cl)cc1OCCN1CCC(NC2CC2)CC1 | 23% (inactive) |
| COc1cc(NC(=O)Nc2cccc3ccccc23)c(OC)cc1Cl | -12% (inactive) |
| CC1CN(Cc2ccc(-c3ccc(-c4nc5ccc(F)cc5[nH]4)cc3)cc2)CC(C)O1 (stereo not given) | 40% (inactive) |
| Cc1ccc(Oc2ccccc2NC(=O)CCc2nc3ccccc3c(=O)[nH]2)cc1 | 3% (inactive) |
| CC(C)c1ccc(CN2CCC(NC(=O)c3ccc(-c4cccc(F)c4)s3)CC2)cc1 | 47% (inactive) |
| Oc1ccc(Cc2ccccc2)cc1CNC1CCCCC1 | 30% (inactive) |
| Cc1ccccc1Cn1c(CN2CCC(C(=O)NC3CC3)CC2)cc2ccccc21 | 7% (inactive) |
